Test Target: T1, human PAR-2 (human, UniProt P55085 26-397)
T1 sequence: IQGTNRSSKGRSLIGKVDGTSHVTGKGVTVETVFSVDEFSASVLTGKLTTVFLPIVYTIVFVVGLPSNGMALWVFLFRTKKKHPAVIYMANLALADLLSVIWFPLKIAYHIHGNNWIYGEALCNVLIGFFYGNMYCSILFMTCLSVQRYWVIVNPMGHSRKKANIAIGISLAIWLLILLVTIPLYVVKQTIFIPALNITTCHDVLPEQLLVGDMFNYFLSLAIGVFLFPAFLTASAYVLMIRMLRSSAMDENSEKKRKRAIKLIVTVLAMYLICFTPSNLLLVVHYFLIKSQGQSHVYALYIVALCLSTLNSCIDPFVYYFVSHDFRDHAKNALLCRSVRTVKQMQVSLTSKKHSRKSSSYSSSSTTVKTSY
Assay Remarks: cell-based or functional assay
Listed below: PAR-2 β-arrestin cell based assay IC50, 2 µM SLIGKV values for each entry.
Recorded Endpoint: PAR-2 β-arrestin cell based assay IC50, 2 µM SLIGKV (nM)

| Binder | Reported |
| --- | --- |
| P24E286 (antibody, human IgG4 S228P, kappa, V domains shown) VH: QVQLVQSGAEVKKPGSSVKVSCKASGFSLNSYAVIWVRQAPGQGLEWMGVIWGNGNTYYAQKFQGRVTITADESTSTAYMELSSLRSEDTAVYYCARWRGYKDYPFDYWGQGTLVTVSS VL: EIVLTQSPATLSLSPGERATLSCKASQNIYKYLDWYQQKPGQAPRLLIYNANSLATGIPARFSGSGSGRDFTLTISSLEPEDFAVYYCLQHNSGWTFGGGTKVEIKR | 2.1 |
| P24E291 (antibody, human IgG4 S228P, kappa, V domains shown) VH: QVQLVQSGAEVKKPGSSVKVSCKASGFSLNSYGIIWVRQAPGQGLEWMGVIWGNGNTYYAQKFQGRVTITADESTSTAYMELSSLRSEDTAVYYCARWRGYKDYPFDYWGQGTLVTVSS VL: EIVLTQSPATLSLSPGERATLSCKASQNIYKYLDWYQQKPGQAPRLLIYNANSLATGIPARFSGSGSGRDFTLTISSLEPEDFAVYYCLQHNSGWTFGGGTKVEIKR | 3.1 |
| P24E287 (antibody, human IgG4 S228P, kappa, V domains shown) VH: QVQLVQSGAEVKKPGSSVKVSCKASGFSLNSYAVIWVRQAPGQGLEWMGVIWGNGNTYYAQKFQGRVTITADESTSTAYMELSSLRSEDTAVYYCARWRGYKDYPFDYWGQGTLVTVSS VL: EIVLTQSPATLSLSPGERATLSCKASQNIYKYLDWYQQKPGQAPRLLIYNTNSRATGIPARFSGSGSGRDFTLTISSLEPEDFAVYYCLQHNSGWTFGGGTKVEIKR | 2.2 |
| P24E931 (antibody, human IgG4 S228P, kappa, V domains shown) VH: QVQLVQSGAEVKKPGSSVKVSCKASGFSLSSYAISWVRQAPGQGLEWMGVIWGNGNVYYAQKFQGRVTITADESTSTAYMELSSLRSEDTAVYYCARWKGYKDYPFDYWGQGTLVTVSS VL: EIVLTQSPATLSLSPGERATLSCKASQNVYKWLDWYQQKPGQAPRLLIYNAYSLATGIPARFSGSGSGRDFTLTISSLEPEDFAVYYCQQHGSGWTFGGGTKVEIKR | 2 |
| P24E883 (antibody, human IgG4 S228P, kappa, V domains shown) VH: QVQLVQSGAEVKKPGSSVKVSCKASGFSLSSYAISWVRQAPGQGLEWMGVIWGNGNTYYAQKFQGRVTITADESTSTAYMELSSLRSEDTAVYYCARWRGYKDYPFDYWGQGTLVTVSS VL: EIVLTQSPATLSLSPGERATLSCKASQNVYKWLDWYQQKPGQAPRLLIYNAYSLATGIPARFSGSGSGRDFTLTISSLEPEDFAVYYCQQHNSGWTFGGGTKVEIKR | 1.21 |
| P24E289 (antibody, human IgG4 S228P, kappa, V domains shown) VH: QVQLVQSGAEVKKPGSSVKVSCKASGFSLNSYGIIWVRQAPGQGLEWMGVIWGNGNTYYAQKFQGRVTITADESTSTAYMELSSLRSEDTAVYYCARWRGYKDYPFDYWGQGTLVTVSS VL: EIVLTQSPATLSLSPGERATLSCRASQNIYKYLDWYQQKPGQAPRLLIYNTNSLATGIPARFSGSGSGRDFTLTISSLEPEDFAVYYCLQHNSGWTFGGGTKVEIKR | 2.6 |
| P24E916 (antibody, human IgG4 S228P, kappa, V domains shown) VH: QVQLVQSGAEVKKPGSSVKVSCKASGFSLSSYAISWVRQAPGQGLEWMGVIWGNGNTYYAQKFQGRVTITADESTSTAYMELSSLRSEDTAVYYCARWKGYKDYPFDYWGQGTLVTVSS VL: EIVLTQSPATLSLSPGERATLSCRASQNVYKWLDWYQQKPGQAPRLLIYNAYSRATGIPARFSGSGSGRDFTLTISSLEPEDFAVYYCQQHNSGWTFGGGTKVEIKR | 1.1 |
| P24E293 (antibody, human IgG4 S228P, kappa, V domains shown) VH: QVQLVQSGAEVKKPGSSVKVSCKASGFSLNSYAISWVRQAPGQGLEWMGVIWGNGNTYYAQKFQGRVTITADESTSTAYMELSSLRSEDTAVYYCARWRGYKDYPFDYWGQGTLVTVSS VL: EIVLTQSPATLSLSPGERATLSCKASQNIYKYLDWYQQKPGQAPRLLIYNTNSLATGIPARFSGSGSGRDFTLTISSLEPEDFAVYYCLQHNSGWTFGGGTKVEIKR | 2 |
| P24E278 (antibody, human IgG4 S228P, kappa, V domains shown) VH: QVQLVQSGAEVKKPGSSVKVSCKASGFSLSSYGVIWVRQAPGQGLEWMGVIWGNGNTYYAQKFQGRVTITADESTSTAYMELSSLRSEDTAVYYCARWRGYKDYPFDYWGQGTLVTVSS VL: EIVLTQSPATLSLSPGERATLSCKASQNIYKYLDWYQQKPGQAPRLLIYNTNSLATGIPARFSGSGSGRDFTLTISSLEPEDFAVYYCLQHNSGWTFGGGTKVEIKR | 2.5 |
| P24E924 (antibody, human IgG4 S228P, kappa, V domains shown) VH: QVQLVQSGAEVKKPGSSVKVSCKASGFSLSSYAISWVRQAPGQGLEWMGVIWGNGNTYYAQKFQGRVTITADESTSTAYMELSSLRSEDTAVYYCARWRGWKDYPFDYWGQGTLVTVSS VL: EIVLTQSPATLSLSPGERATLSCRASQNVYKWLDWYQQKPGQAPRLLIYNAYSRATGIPARFSGSGSGRDFTLTISSLEPEDFAVYYCQQHNSGWTFGGGTKVEIKR | 0.79 |
